Numbers sourced from ChEMBL document CHEMBL4400576.

test: MRT (0 to infinity) in Sprague-Dawley rat at 2.5 mg/kg, iv by LC-MS/MS analysis; assay type: ADME, organism-based; conditions: in vivo
endpointName: MRT inf (h)

smilesInput: COc1ccn2nc(C)c(C(=O)NCc3ccc(-c4ccc(OC(F)(F)F)cc4)cn3)c2c1
numericResult: 4.02

====

assay: Selectivity index, ratio of IC50 for African green monkey Vero cells to MIC>=90 for Mycobacterium tuberculosis H37Rv; assay type: toxicity; conditions: read-out: Selectivity Index

smilesInput: COc1ccn2nc(C)c(C(=O)NCc3ccc(-c4ccc(OC(F)(F)F)cc4)s3)c2c1
resultOperator: >
selectivity ratio: 25000
//
smilesInput: COc1ccn2nc(C)c(C(=O)NCc3ccc(-c4ccc(OC(F)(F)F)cc4)c(F)c3)c2c1
resultOperator: >
selectivity ratio: 25000
//
smilesInput: COc1ccn2nc(C)c(C(=O)NCc3ccc(-c4ccc(OC(F)(F)F)cc4)c(C(F)(F)F)c3)c2c1
resultOperator: =
selectivity ratio: 402
//
smilesInput: COc1ccn2nc(C)c(C(=O)NCc3ccc(-c4ccc(OC(F)(F)F)cc4)c(OC)c3)c2c1
resultOperator: =
selectivity ratio: 1680
//
smilesInput: COc1ccn2nc(C)c(C(=O)NCc3ccc(-c4ccc(OC(F)(F)F)cc4)nc3)c2c1
resultOperator: =
selectivity ratio: 535
//
smilesInput: CO[C@H]1/C=C/O[C@@]2(C)Oc3c(C)c(O)c4c(O)c(c(/C=N/N5CCN(C)CC5)c(O)c4c3C2=O)NC(=O)/C(C)=C\C=C\[C@H](C)[C@H](O)[C@@H](C)[C@@H](O)[C@@H](C)[C@H](OC(C)=O)[C@@H]1C
resultOperator: >
selectivity ratio: 12500
//
smilesInput: COc1ccn2nc(C)c(C(=O)NCc3ccc(-c4ccc(OC(F)(F)F)cc4)c(C)c3)c2c1
resultOperator: =
selectivity ratio: 242
//
smilesInput: COc1ccn2nc(C)c(C(=O)NCc3ccc(-c4ccc(OC(F)(F)F)cc4)cc3F)c2c1
resultOperator: >
selectivity ratio: 7140
//
smilesInput: COc1nc2ccc(Br)cc2cc1[C@@H](c1ccccc1)[C@@](O)(CCN(C)C)c1cccc2ccccc12
resultOperator: >
selectivity ratio: 500
//
smilesInput: COc1ccn2nc(C)c(C(=O)NCc3ccc(-c4ccc(OC(F)(F)F)cc4)cn3)c2c1
resultOperator: >
selectivity ratio: 25000
